- ASSAY_TARGET: T1, human IL-8 (human, UniProt P10145 23-99, limits assumed)
- T1 construct: also called hIL-8; hIL8
- T1 sequence (P10145 23-99 limits assumed): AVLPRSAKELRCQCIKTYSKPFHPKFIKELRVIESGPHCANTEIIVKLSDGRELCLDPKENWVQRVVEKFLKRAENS
- ASSAY_REMARKS: SPR Biacore T200, Protein A/G capture, pH 7.4, 40C;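 further: antibodies captured via Protein A/G, which was amine-coupled to a CM4 sensor chip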
TEST_READOUT: pKd
Give bare numbers, as −log10 of the molar value.

Value sought for every listed binder: pKd.
1. H1049/L0395 (antibody, human IgG1, kappa, name in Kabat numbering, V domains shown) VH: QVQLVESGGGLVQPGGSLRLSCAASGFTFDKYYLSWVRQAPGKGLEWVGLIRNKDNYHTPEYSASVKGRFTISRDDSKNSLYLTMSDLKTEDTAVYYCARENHRYDVELAYWGQGTLVTVSS VL: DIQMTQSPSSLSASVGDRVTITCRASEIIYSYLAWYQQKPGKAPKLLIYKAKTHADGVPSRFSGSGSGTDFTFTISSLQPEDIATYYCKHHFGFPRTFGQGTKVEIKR
2. H1032/L0442 (antibody, human IgG1, kappa, name in Kabat numbering, V domains shown, L442 = L395 + S31E) VH: QVQLVESGGGLVQPGGSLRLSCAASGFTFDKYYLSWVRQAPGKGLEWVGLIRNKDNGYHPEYSASVKGRFTISRDDSKNSLYLTMSDLKTEDTAVYYCARENHRYDVELAYWGQGTLVTVSS VL: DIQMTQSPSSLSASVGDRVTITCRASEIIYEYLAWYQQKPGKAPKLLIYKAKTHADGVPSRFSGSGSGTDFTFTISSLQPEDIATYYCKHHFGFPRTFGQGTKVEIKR
3. H1028/L0442 (antibody, human IgG1, kappa, name in Kabat numbering, V domains shown, L442 = L395 + S31E) VH: QVQLVESGGGLVQPGGSLRLSCAASGFTFSDYYLSWVRQAPGKGLEWVGLIRNKDNYHHPEYSASVKGRFTISRDDSKNSLYLTMSDLKTEDTAVYYCARENHRYDVELAYWGQGTLVTVSS VL: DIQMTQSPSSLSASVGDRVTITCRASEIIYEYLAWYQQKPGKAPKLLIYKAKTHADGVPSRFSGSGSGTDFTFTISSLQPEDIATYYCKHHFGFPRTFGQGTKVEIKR
4. H1037/L0442 (antibody, human IgG1, kappa, name in Kabat numbering, V domains shown, L442 = L395 + S31E) VH: QVQLVESGGGLVQPGGSLRLSCAASGFTFDKYYLSWVRQAPGKGLEWVGLIRNKDNYHHPEYSASVKGRFTISRDDSKNSLYLTMSDLKTEDTAVYYCARENHRYDVELAYWGQGTLVTVSS VL: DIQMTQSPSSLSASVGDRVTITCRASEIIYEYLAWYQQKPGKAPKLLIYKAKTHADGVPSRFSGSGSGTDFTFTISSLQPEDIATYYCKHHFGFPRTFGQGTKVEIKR

Response:
1. 10.60
2. 10.11
3. 9.62
4. 9.89

Data origin: patent US20190169286A1
